assay: in vivo; settings: dog
measured_endpoint: half-life (h)

| record_smiles | reported_measurement |
| --- | --- |
| COc1ccc(-n2nc(C(F)(F)F)cc2C(=O)Nc2ccc(-c3ccccc3S(N)(=O)=O)cn2)cc1 | 6 |
| COc1ccc(-n2nc(C)cc2C(=O)Nc2ccc(-c3ccccc3S(N)(=O)=O)cc2)cc1 | 4.46 |
| COc1ccc(-n2nc(C)cc2C(=O)Nc2ccc(-c3ccccc3S(N)(=O)=O)cn2)cc1 | 4.33 |

* * *

test: in vivo; settings: dog
measured_endpoint: Vd (L/kg)
The answer is to be given in L/kg; state only the numeric part.

Lab note: COc1ccc(-n2nc(C(F)(F)F)cc2C(=O)Nc2ccc(-c3ccccc3S(N)(=O)=O)cn2)cc1 gave Vd of 1.8

* * *

assay: in vivo; conditions: dog
measured_endpoint: clearance (mL/min/kg)

A: COc1ccc(-n2nc(C(F)(F)F)cc2C(=O)Nc2ccc(-c3ccccc3S(N)(=O)=O)cn2)cc1
B: COc1ccc(-n2nc(C)cc2C(=O)Nc2ccc(-c3ccccc3S(N)(=O)=O)cn2)cc1
Prompt: I'm curious whether A or B has the smaller clearance number. Which is it? Which one? Tell me its label.
Response: B

* * *

molecular target: UniProt P00734
pKi: −log10 of the molar value.
This listing pairs compounds with measured pKi.

Record excerpt, results attached:
| record_smiles | pKi |
| --- | --- |
| COc1ccccc1-n1nc(C)cc1C(=O)Nc1ccc(-c2ccccc2S(N)(=O)=O)cc1 | < 4.68 |
| CS(=O)(=O)c1ccccc1-c1ccc(NC(=O)c2cc(C(F)(F)F)nn2-c2ccccc2CNCc2ccccc2)c(F)c1 | < 4.68 |
| Cc1cc(C(=O)Nc2ccc(-c3ccccc3S(N)(=O)=O)cc2)n(-c2cccc(O)c2)n1 | < 4.68 |
| COc1ccc(-n2nc(C(F)(F)F)cc2C(=O)Nc2ccc(-c3ccccc3S(N)(=O)=O)cc2F)cc1 | < 4.68 |
| COc1ccc(-n2nc(C(F)(F)F)cc2C(=O)Nc2ccc(-c3ccccc3S(N)(=O)=O)cc2)c(CN)c1 | 4.85 |
| COc1ccc(-n2nc(C(F)(F)F)cc2C(=O)Nc2ccc(-c3ccccc3S(C)(=O)=O)cc2F)cc1 | < 4.68 |
| CC(C)NCc1ccccc1-n1nc(C(F)(F)F)cc1C(=O)Nc1ccc(-c2ccccc2S(C)(=O)=O)cc1F | < 4.68 |
| CS(=O)(=O)c1ccccc1-c1ccc(NC(=O)c2cc(C(F)(F)F)nn2-c2ccccc2CN)c(F)c1 | 5.82 |

Switching to the query record.
Reported pKi (UniProt P00734) for entry CS(=O)(=O)c1ccccc1-c1ccc(NC(=O)c2cc(C(F)(F)F)nn2-c2ccccc2CCCN)c(F)c1 is < 4.68

* * *

target: Serine protease 1 (Homo sapiens)
Sequence (P07477 whole entry): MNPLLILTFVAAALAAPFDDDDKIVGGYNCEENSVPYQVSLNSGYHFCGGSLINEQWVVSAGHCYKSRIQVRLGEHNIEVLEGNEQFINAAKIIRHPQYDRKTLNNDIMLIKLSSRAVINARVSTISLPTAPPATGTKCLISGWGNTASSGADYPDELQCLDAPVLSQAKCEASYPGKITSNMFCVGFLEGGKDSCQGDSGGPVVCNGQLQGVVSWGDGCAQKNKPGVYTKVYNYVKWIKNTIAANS
Reported Ki values for the following molecules.

For orientation, consider the following solved cases.
| record_smiles | Ki |
| --- | --- |
| CS(=O)(=O)c1ccccc1-c1ccc(NC(=O)c2cc(C(F)(F)F)nn2-c2ccccc2CN)cc1 | > 1600 nM |
| CS(=O)(=O)c1ccccc1-c1ccc(NC(=O)c2cc(C(F)(F)F)nn2-c2ccccc2CCN)c(F)c1 | > 2500 nM |

--- query ---
Just so you know, measured Ki for Cc1cc(C(=O)Nc2ccc(-c3ccccc3S(N)(=O)=O)cc2)n(-c2ccccc2O)n1 came out at > 1500 nM

* * *

assay: in vivo; conditions: dog, iv
measured_endpoint: clearance (mL/min/kg)

| record_smiles | clearance [mL/min/kg] |
| --- | --- |
| COc1ccc(-n2nc(C(F)(F)F)cc2C(=O)Nc2ccc(-c3ccccc3S(C)(=O)=O)cc2)c(CN)c1 | 21.5 |

I: COc1ccc(-n2nc(C(F)(F)F)cc2C(=O)Nc2ccc(-c3ccccc3S(C)(=O)=O)cc2F)c(CN)c1
II: NCc1ccccc1-n1nc(C(F)(F)F)cc1C(=O)Nc1ccc(-c2ccccc2S(N)(=O)=O)cc1F
Prompt: Lower clearance: I or II ? Lab note: record the label of whichever item you select.
Response: II
(II: 2.33 mL/min/kg, I: 25.2 mL/min/kg)

* * *

Each entry below carries its recorded ID50.
species on record: Oryctolagus cuniculus; test: Tested for inhibition of thrombus formation in rabbit model of arteriovenous shunt thrombosis; assay type: functional
Provide the reading as a plain figure in µM/h/kg.

| record_smiles | ID50 [µM/h/kg] |
| --- | --- |
| COc1ccc(-n2nc(C(F)(F)F)cc2C(=O)Nc2ccc(-c3ccccc3S(C)(=O)=O)cc2F)c(CN)c1 | 5.5 |
| COc1ccc(-n2nc(C(F)(F)F)cc2C(=O)Nc2ccc(-c3ccccc3S(N)(=O)=O)cc2F)c(CN)c1 | 3.4 |
| CS(=O)(=O)c1ccccc1-c1ccc(NC(=O)c2cc(C(F)(F)F)nn2-c2ccccc2CN)c(F)c1 | 3.2 |

// sample NCc1ccccc1-n1nc(C(F)(F)F)cc1C(=O)Nc1ccc(-c2ccccc2S(N)(=O)=O)cc1F , its ID50 was 4.2

response.value for CS(=O)(=O)c1ccccc1-c1ccc(NC(=O)c2cc(C(F)(F)F)nn2-c2cccc(CN)c2)c(F)c1.Cl (field: ID50) = 1.1

* * *

target: Vitamin K-dependent protein C (Homo sapiens); assay: Tested in vitro for inhibition of human activated protein C
Sequence (P04070 43-197 limits assumed): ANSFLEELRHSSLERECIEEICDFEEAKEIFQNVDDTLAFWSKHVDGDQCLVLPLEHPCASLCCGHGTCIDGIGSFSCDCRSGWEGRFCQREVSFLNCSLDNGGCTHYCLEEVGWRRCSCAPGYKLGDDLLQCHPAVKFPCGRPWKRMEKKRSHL
Sequence (P04070 212-461 limits assumed): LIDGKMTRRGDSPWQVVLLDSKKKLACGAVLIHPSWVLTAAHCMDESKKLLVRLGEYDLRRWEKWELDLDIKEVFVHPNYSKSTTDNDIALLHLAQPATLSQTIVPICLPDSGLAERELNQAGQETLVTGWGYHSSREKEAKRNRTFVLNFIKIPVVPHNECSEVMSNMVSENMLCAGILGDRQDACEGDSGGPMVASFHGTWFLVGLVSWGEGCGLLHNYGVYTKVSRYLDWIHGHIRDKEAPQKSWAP
measured_endpoint: pKi
Lab note: report pKi as minus log10 of the concentration in molar units, number only.

Consider NCc1ccccc1-n1nc(C(F)(F)F)cc1C(=O)Nc1ccc(-c2ccccc2S(N)(=O)=O)cc1F . Its measured pKi is 5.34

* * *

target: Plasma kallikrein (Homo sapiens, UniProt P03952); test: Tested in vitro for inhibition of human plasma Kallikriene
Sequence (P03952 20-390 limits assumed): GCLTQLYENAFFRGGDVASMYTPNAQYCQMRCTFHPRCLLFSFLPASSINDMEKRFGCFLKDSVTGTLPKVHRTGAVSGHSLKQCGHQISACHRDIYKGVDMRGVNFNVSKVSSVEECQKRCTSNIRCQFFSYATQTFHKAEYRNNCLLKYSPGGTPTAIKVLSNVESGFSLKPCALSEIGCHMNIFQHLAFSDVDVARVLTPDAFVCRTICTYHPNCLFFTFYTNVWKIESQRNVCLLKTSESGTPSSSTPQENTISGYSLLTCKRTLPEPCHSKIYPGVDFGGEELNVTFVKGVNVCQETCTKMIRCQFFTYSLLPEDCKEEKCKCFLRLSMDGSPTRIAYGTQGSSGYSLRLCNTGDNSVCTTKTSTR
Sequence (P03952 391-638 limits assumed): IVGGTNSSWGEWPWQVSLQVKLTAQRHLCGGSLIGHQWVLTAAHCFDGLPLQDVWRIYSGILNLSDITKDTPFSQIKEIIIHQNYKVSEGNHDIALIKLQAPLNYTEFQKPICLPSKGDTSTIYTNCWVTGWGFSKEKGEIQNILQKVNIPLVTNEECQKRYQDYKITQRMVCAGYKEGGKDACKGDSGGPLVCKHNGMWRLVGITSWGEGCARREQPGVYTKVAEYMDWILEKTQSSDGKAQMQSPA
measured_endpoint: Ki (nM)
Give just the number in nM; leave the unit off.

The measured Ki associated with NCc1ccccc1-n1nc(C(F)(F)F)cc1C(=O)Nc1ccc(-c2ccccc2S(N)(=O)=O)cc1F reads 58

* * *

target: Serine protease 1 (Homo sapiens)
measured_endpoint: Ki

Ki for COc1ccc(-n2nc(C)cc2C(=O)Nc2ccc(-c3ccccc3S(N)(=O)=O)cn2)cc1 is > 1500 nM

GET /value?item= COc1ccc(-n2nc(C(F)(F)F)cc2C(=O)Nc2ccc(-c3ccccc3S(C)(=O)=O)cc2F)cc1 &field=Ki returns > 2500 nM

Value of Ki reported for the compound COc1ccc(-n2nc(C(F)(F)F)cc2C(=O)Nc2ccc(-c3ccccc3S(N)(=O)=O)cc2)cc1 is > 1500 nM

According to the records, this compound NCc1ccccc1-n1nc(C(F)(F)F)cc1C(=O)Nc1ccc(-c2ccccc2S(N)(=O)=O)cc1 displays Ki of > 1600 nM

// sample COc1ccc(-n2nc(C(F)(F)F)cc2C(=O)Nc2ccc(-c3ccccc3S(N)(=O)=O)cc2F)c(CN)c1 , its Ki was > 1600 nM

Value of Ki reported for the compound COc1ccc(-n2nc(C)cc2C(=O)Nc2ccc(-c3ccccc3S(N)(=O)=O)cc2)c(CN)c1 is > 1600 nM

So for COc1ccc(-n2nc(C)cc2C(=O)Nc2ccc(-c3ccccc3S(N)(=O)=O)cc2F)cc1 , the logged Ki turned out to be > 1500 nM

Lab note: measured Ki of CNCc1ccccc1-n1nc(C(F)(F)F)cc1C(=O)Nc1ccc(-c2ccccc2S(C)(=O)=O)cc1F was > 2500 nM

* * *

assay: in vivo; settings: dog, iv
measured_endpoint: Vd (L/kg)

A: COc1ccc(-n2nc(C(F)(F)F)cc2C(=O)Nc2ccc(-c3ccccc3S(C)(=O)=O)cc2)c(CN)c1
B: COc1ccc(-n2nc(C(F)(F)F)cc2C(=O)Nc2ccc(-c3ccccc3S(C)(=O)=O)cc2F)c(CN)c1
C: NCc1ccccc1-n1nc(C(F)(F)F)cc1C(=O)Nc1ccc(-c2ccccc2S(N)(=O)=O)cc1F
Prompt: Could you please sort these 3 entries by Vd from high to low? Show the ranking through the labels, in the order asked for.
Response: A, B, C
(A: 8 L/kg, B: 5.4 L/kg, C: 1.2 L/kg)

* * *

pKi: −log10 of the molar value.
Let's go through some pKi measurements on Coagulation factor X (Homo sapiens) together.
Sequence (P00742 41-179 limits assumed): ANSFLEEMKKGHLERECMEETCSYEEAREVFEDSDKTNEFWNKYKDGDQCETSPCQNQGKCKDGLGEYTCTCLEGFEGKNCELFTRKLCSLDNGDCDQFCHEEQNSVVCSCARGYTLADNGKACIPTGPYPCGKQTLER
Sequence (P00742 235-488 limits assumed): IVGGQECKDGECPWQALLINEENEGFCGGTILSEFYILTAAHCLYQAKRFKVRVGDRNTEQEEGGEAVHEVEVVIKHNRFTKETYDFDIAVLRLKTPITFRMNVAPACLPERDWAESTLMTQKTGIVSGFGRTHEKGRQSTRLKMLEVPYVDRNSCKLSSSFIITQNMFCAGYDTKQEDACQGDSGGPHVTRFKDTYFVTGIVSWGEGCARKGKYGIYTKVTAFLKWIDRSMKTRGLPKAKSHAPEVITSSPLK
measured_endpoint: pKi

| record_smiles | reported_measurement |
| --- | --- |
| Cc1cc(C(=O)Nc2ccc(-c3ccccc3S(N)(=O)=O)cc2)n(-c2ccccc2O)n1 | 5.92 |
| NCc1ccccc1-n1nc(C(F)(F)F)cc1C(=O)Nc1ccc(-c2ccccc2S(N)(=O)=O)cc1 | 8.74 |
| COc1ccc(-n2nc(C)cc2C(=O)Nc2ccc(-c3ccccc3S(N)(=O)=O)cn2)cc1 | 7.80 |
| COc1ccc(-n2nc(C(F)(F)F)cc2C(=O)Nc2ccc(-c3ccccc3S(N)(=O)=O)cn2)cc1 | 8.55 |
| COc1ccc(-n2nc(C(F)(F)F)cc2C(=O)Nc2ccc(-c3ccccc3S(N)(=O)=O)cc2F)c(CN)c1 | 9.06 |

I: CNCc1ccccc1-n1nc(C(F)(F)F)cc1C(=O)Nc1ccc(-c2ccccc2S(C)(=O)=O)cc1F
II: COc1ccc(-n2nc(C(F)(F)F)cc2C(=O)Nc2ccc(-c3ccccc3S(C)(=O)=O)cc2)c(CN)c1
III: CS(=O)(=O)c1ccccc1-c1ccc(NC(=O)c2cc(C(F)(F)F)nn2-c2ccccc2CN)cc1
Prompt: Arrange the 3 molecules by rising pKi, starting with the smallest. Record the ranking as a list of labels in the requested order.
Response: I, II, III

Values were extracted from ChEMBL document CHEMBL1145914.
